Listed here: items and their measured pKi.
Biological target: T1, matrix metalloprotease 2 (MMP2) (UniProt P08253 110-660, limits assumed)
T1 construct: also called matrix metalloproteinases 2
T1 sequence (looked up): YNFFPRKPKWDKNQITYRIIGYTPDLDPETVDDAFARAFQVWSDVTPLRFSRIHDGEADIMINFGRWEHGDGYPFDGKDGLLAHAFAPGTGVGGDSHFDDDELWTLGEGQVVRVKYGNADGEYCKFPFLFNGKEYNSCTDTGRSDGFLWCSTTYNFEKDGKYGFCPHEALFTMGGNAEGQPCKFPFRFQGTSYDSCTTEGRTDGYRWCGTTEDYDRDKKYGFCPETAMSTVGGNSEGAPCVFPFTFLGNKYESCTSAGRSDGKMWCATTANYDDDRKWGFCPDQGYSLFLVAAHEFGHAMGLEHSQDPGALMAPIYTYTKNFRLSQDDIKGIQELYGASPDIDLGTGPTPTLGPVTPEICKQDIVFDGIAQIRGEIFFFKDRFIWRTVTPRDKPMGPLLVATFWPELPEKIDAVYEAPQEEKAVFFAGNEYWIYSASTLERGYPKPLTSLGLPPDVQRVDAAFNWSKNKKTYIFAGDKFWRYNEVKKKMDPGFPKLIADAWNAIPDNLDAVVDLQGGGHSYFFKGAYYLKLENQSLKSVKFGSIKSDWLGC
Test: MMP2 FRET-substrate inhibition assay; Ki = IC50/(1+[S]0/Km)
pKi: −log10 of the molar value. Starred links: 1 amine or outer side, 2 acyl side, 3 side chain; linkers in the order of their positions; H or OH if unused. Non-standard residues stand in square brackets, D forms with d. Primed or numbered codes have the meaning given here. No end group written: not given here. Asn(OH)″ = N^γ-hydroxy-L-asparagine (L-aspartic acid β-hydroxamate), O=C(C[C@H](N[*:1])C(=O)[*:2])NO

Binder	pKi
ISYGN[Asn(OH)″]ALMP-NH2 (N-terminus assumed; SMILES CC[C@H](C)[C@H](N)C(=O)N[C@@H](CO)C(=O)N[C@@H](Cc1ccc(O)cc1)C(=O)NCC(=O)N[C@@H](CC(N)=O)C(=O)N[C@@H](CC(=O)NO)C(=O)N[C@@H](C)C(=O)N[C@@H](CC(C)C)C(=O)N[C@@H](CCSC)C(=O)N1CCC[C@H]1C(N)=O, Linear 10-mer; also called linear Asn(OH)-APP-IP peptide 9) [Asn(OH)-APP-IP peptide 9, ISYGNN(OH)ALMP]	7.64
cyclo(SYCDCLCRRGVCRCICTI) (disulfide (positions not given here); also: oxidatively folded, disulfide pairing not given here, Obtained by NaIO4 oxidation of Asn(OH)-RTD-1 17; also called peptide 18) [Asp-RTD-1 18, cyclo[SYCDCLCRRGVCRCICTI]]	8.19

Data provenance is patent US20240167070A1.
